Experiment: Protein binding
Assay type: in vitro ADME
Settings: dog, plasma, In vitro dog plasma protein binding
Source text: Supplement media-1.zip/Protein_Binding.csv, table | column: fu; perc_bound; perc_free; perc_recovered
measured-metric: fraction unbound
One number for each entry.

IN: Param item = CC(C)C(Nc1ncnc2[nH]c(C(=O)NC3CCN(C)C3)cc12)c1ccc2c(c1)S(=O)(=O)CCC2 (stereo not shown) ; retrieve measured fraction unbound.
OUT: 0.165

* * *

tested on: SARS-CoV-2, isolate USA-WA1/2020; assay: microbe, parasite or virus in culture; assay type: cell-based; conditions: HeLa-ACE2 SARS-CoV-2 antiviral effect without P-gp inhibitor; minimum measured response of dose series
measured-metric: perc_min_measured (%)
Give bare numbers, in %.

CNC(=O)c1cc2c(N[C@@H](c3ccc4c(c3)S(=O)(=O)CCC4)C(C)C)ncnc2[nH]1 (single isomer, unassigned)	90.681
CC(C)[C@H](Nc1ncnc2[nH]c(-c3cnn(C)c3C#N)cc12)c1ccc2c(n1)NC(=O)CO2 (single isomer, unassigned)	3.388

The record that follows has no perc_min_measured shown yet.
IN: Param item = CC(C)[C@@H](Nc1ncnc2[nH]c(-c3cnn(CC(N)=O)c3)cc12)c1ccc2c(c1)S(=O)(=O)CCC2 ; retrieve measured perc_min_measured.
OUT: 107.301

* * *

assay: Protein binding; type: in vitro ADME; settings: In vitro dog plasma protein binding
measured-metric: perc_recovered (%)
Answers are plain numbers, in %.

Sample records with perc_recovered:
COc1ccc([C@H](Cc2nnn[nH]2)NC(=O)c2ncnc3[nH]ccc23)cc1	90.64
CC(C)[C@H](Nc1ncnc2[nH]c(-c3cnn(C)c3C#N)cc12)c1ccc2c(n1)OCCO2	87.48

Could you tell me perc_recovered for each of these compounds? They are listed below.
1. CC(C)[C@@H](Nc1ncnc2[nH]c(-c3cnn(C)c3C#N)cc12)c1ccc2c(n1)OCCO2
2. C[C@H](C(=O)O)[C@@H](NC(=O)c1ncnc2[nH]ccc12)c1ccc(Br)cc1
3. Cn1ncc(-c2cc3c(N[C@@H](c4ccc5c(n4)OCCO5)C(C)(C)C)ncnc3[nH]2)c1C#N
4. CC(C)C(Nc1ncnc2[nH]c(C(=O)NC3CCN(C)C3)cc12)c1ccc2c(c1)S(=O)(=O)CCC2 (centres unmarked)

OUT:
1. 91.53
2. 103.6
3. 99.93
4. 87.93

Could you tell me perc_recovered for each of these compounds? They are listed below.
1. CC(C)[C@H](Nc1ncnc2[nH]ccc12)c1ccc2c(c1)S(=O)(=O)CCC2
2. CNCc1cc(-c2cc3c(N[C@@H](c4ccc5c(c4)S(=O)(=O)CCC5)C(C)C)ncnc3[nH]2)co1

OUT:
[97.58, 70.87]

* * *

assay: In vitro kinetic solubility; conditions: pH 7.4
measured-metric: solubility (µM)
One number for each entry, in µM.

Sample records with solubility:
Cc1nn(C)cc1-c1cc2c(NC(c3ccc4c(c3)S(=O)(=O)CCC4)C(C)C)ncnc2[nH]1 (stereo not shown)	65
CCNC(=O)c1cc2c(NC(c3ccc4c(c3)OCCO4)C(C)C)ncnc2[nH]1 (stereo not shown)	72
CNC(=O)Cn1cc(-c2cc3c(NC(c4ccc5c(c4)OCCO5)C(C)C)ncnc3[nH]2)cn1 (stereo not shown)	289

The record that follows has no solubility shown yet.
IN: Param item = CC(C)C(Nc1ncnc2[nH]c(C(=O)NC3CCN(C)C3)cc12)c1ccc2c(c1)S(=O)(=O)CCC2 (stereo not shown) ; retrieve measured solubility.
OUT: 392

* * *

test: Hepatic microsomal stability, HLM; assay type: in vitro ADME, human; details: In vitro human liver microsomal stability
measured-metric: perc_remaining (%)
Give bare numbers, in %.

Sample records with perc_remaining:
CC(C)[C@@H](Nc1ncnc2[nH]c(-c3cnn(C)c3)cc12)c1ccc2c(c1)S(=O)(=O)NCC2	13.0
CC(C)C(Nc1ncnc2[nH]ccc12)c1ccc2c(c1)S(=O)(=O)CCC2 (stereo not drawn)	53.0

IN: Param item = CC(C)[C@H](Nc1ncnc2[nH]c(-c3cnn(CC(=O)N(C)C)c3)cc12)c1ccc2c(c1)OCCO2 (single isomer, unassigned) [ASAP-0013833] ; retrieve measured perc_remaining.
OUT: 0.0

* * *

Tested on: KV channel
Experiment: In vitro CEREP profiling, KV channel (antagonist radioligand)
Format: binding
Details: test compound concentration 10 uM
Excerpt: Supplement media-1.zip/Safety_Panel_Profile.csv, table | column: perc_inhibition
Assignment: determine reported perc_inhibition (% inhibition of the binding of a ligand specific for each target) for the given compounds.
Numbers only, in %.

Sample records with perc_inhibition (% inhibition of the binding of a ligand specific for each target):
CC(C)[C@@H](Nc1ncnc2[nH]c(-c3cnn(C)c3C#N)cc12)c1ccc2c(n1)OCCO2 [ASAP-0010716]	2
Cn1ncc(-c2cc3c(N[C@@H](c4ccc5c(n4)OCCO5)C(C)(C)C)ncnc3[nH]2)c1C#N [ASAP-0011221]	5
C[C@H](C(=O)O)[C@@H](NC(=O)c1ncnc2[nH]ccc12)c1ccc(Br)cc1 [ASAP-0014722]	0
CC(C)[C@H](Nc1ncnc2[nH]ccc12)c1ccc2c(c1)S(=O)(=O)CCC2 [ASAP-0008674]	-10
CNCc1cc(-c2cc3c(N[C@@H](c4ccc5c(c4)S(=O)(=O)CCC5)C(C)C)ncnc3[nH]2)co1 [ASAP-0011176]	1
Cc1nn(C)cc1-c1cc2c(NC(c3ccc4c(c3)S(=O)(=O)CCC4)C(C)C)ncnc2[nH]1 (stereo not drawn) [ASAP-0011446]	1
COc1ccc([C@H](Cc2nnn[nH]2)NC(=O)c2ncnc3[nH]ccc23)cc1 [ASAP-0015381]	-1
CC(C)C(Nc1ncnc2[nH]c(C(=O)NC3CCN(C)C3)cc12)c1ccc2c(c1)S(=O)(=O)CCC2 (stereo not drawn) [ASAP-0011198]	2

The record that follows has no perc_inhibition (% inhibition of the binding of a ligand specific for each target) shown yet.
IN: Param item = CC(C)[C@H](Nc1ncnc2[nH]c(-c3cnn(C)c3C#N)cc12)c1ccc2c(n1)OCCO2 [ASAP-0010715] ; retrieve measured perc_inhibition (% inhibition of the binding of a ligand specific for each target).
OUT: 0

* * *

Target: CB1 (h) (Homo sapiens)
Construct: purchased Eurofins Cerep (SafetyScreen44), recognised from the panel format
Sequence (P21554 whole entry): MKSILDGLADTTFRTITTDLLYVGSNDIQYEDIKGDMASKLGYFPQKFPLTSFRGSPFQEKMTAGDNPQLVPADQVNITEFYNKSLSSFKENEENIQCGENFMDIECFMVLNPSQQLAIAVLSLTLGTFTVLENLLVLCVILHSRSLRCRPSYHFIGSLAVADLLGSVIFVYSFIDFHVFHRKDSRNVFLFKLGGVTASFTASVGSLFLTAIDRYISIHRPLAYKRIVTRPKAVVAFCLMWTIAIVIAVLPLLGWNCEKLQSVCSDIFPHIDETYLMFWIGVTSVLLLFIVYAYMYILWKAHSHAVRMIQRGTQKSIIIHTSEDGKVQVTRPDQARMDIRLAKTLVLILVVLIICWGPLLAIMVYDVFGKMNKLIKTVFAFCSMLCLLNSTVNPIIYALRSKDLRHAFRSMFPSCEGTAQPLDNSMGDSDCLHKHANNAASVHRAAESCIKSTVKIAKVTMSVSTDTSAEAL
Experiment: In vitro CEREP profiling, CB1 (h) (agonist radioligand)
Type: binding
Conditions: test compound 10 uM
Excerpt: Supplement media-1.zip/Safety_Panel_Profile.csv, table | column: perc_inhibition
Assignment: determine reported perc_inhibition (% inhibition of the binding of a ligand specific for each target) for the given compounds.
Answers are plain numbers, in %.

Sample records with perc_inhibition (% inhibition of the binding of a ligand specific for each target):
CC(C)[C@@H](Nc1ncnc2[nH]c(-c3cnn(C)c3C#N)cc12)c1ccc2c(n1)OCCO2	14
COc1ccc([C@H](Cc2nnn[nH]2)NC(=O)c2ncnc3[nH]ccc23)cc1	-8
CC(C)[C@H](Nc1ncnc2[nH]ccc12)c1ccc2c(c1)S(=O)(=O)CCC2	-13
C[C@H](C(=O)O)[C@@H](NC(=O)c1ncnc2[nH]ccc12)c1ccc(Br)cc1	-11
CNCc1cc(-c2cc3c(N[C@@H](c4ccc5c(c4)S(=O)(=O)CCC5)C(C)C)ncnc3[nH]2)co1	3
Cn1ncc(-c2cc3c(N[C@@H](c4ccc5c(n4)OCCO5)C(C)(C)C)ncnc3[nH]2)c1C#N	33

The record that follows has no perc_inhibition (% inhibition of the binding of a ligand specific for each target) shown yet.
IN: Param item = CC(C)[C@H](Nc1ncnc2[nH]c(-c3cnn(C)c3C#N)cc12)c1ccc2c(n1)OCCO2 ; retrieve measured perc_inhibition (% inhibition of the binding of a ligand specific for each target).
OUT: 46

* * *

test system: Na+ channel (site 2); experiment: In vitro CEREP profiling, Na+ channel (site 2) (antagonist radioligand); format: binding; settings: test compound concentration 10 uM
perc_inhibition (% inhibition of the binding of a ligand specific for each target) of 10% or higher: Criterion met. Under 10%: Criterion not met.

Cc1nn(C)cc1-c1cc2c(NC(c3ccc4c(c3)S(=O)(=O)CCC4)C(C)C)ncnc2[nH]1 (stereo not drawn) [ASAP-0011446]	Criterion not met

IN: Item CC(C)C(Nc1ncnc2[nH]c(C(=O)NC3CCN(C)C3)cc12)c1ccc2c(c1)S(=O)(=O)CCC2 (stereo not drawn) [ASAP-0011198] with perc_inhibition (% inhibition of the binding of a ligand specific for each target) of 10% or above?
OUT: Criterion met

IN: Item CC(C)[C@H](Nc1ncnc2[nH]ccc12)c1ccc2c(c1)S(=O)(=O)CCC2 [ASAP-0008674] with perc_inhibition (% inhibition of the binding of a ligand specific for each target) of 10% or above?
OUT: Criterion not met

IN: Item Cn1ncc(-c2cc3c(N[C@@H](c4ccc5c(n4)OCCO5)C(C)(C)C)ncnc3[nH]2)c1C#N [ASAP-0011221] with perc_inhibition (% inhibition of the binding of a ligand specific for each target) of 10% or above?
OUT: Criterion met

IN: Item CNCc1cc(-c2cc3c(N[C@@H](c4ccc5c(c4)S(=O)(=O)CCC5)C(C)C)ncnc3[nH]2)co1 [ASAP-0011176] with perc_inhibition (% inhibition of the binding of a ligand specific for each target) of 10% or above?
OUT: Criterion met

IN: Item COc1ccc([C@H](Cc2nnn[nH]2)NC(=O)c2ncnc3[nH]ccc23)cc1 [ASAP-0015381] with perc_inhibition (% inhibition of the binding of a ligand specific for each target) of 10% or above?
OUT: Criterion not met

IN: Item CC(C)[C@@H](Nc1ncnc2[nH]c(-c3cnn(C)c3C#N)cc12)c1ccc2c(n1)OCCO2 [ASAP-0010716] with perc_inhibition (% inhibition of the binding of a ligand specific for each target) of 10% or above?
OUT: Criterion met

IN: Item C[C@H](C(=O)O)[C@@H](NC(=O)c1ncnc2[nH]ccc12)c1ccc(Br)cc1 [ASAP-0014722] with perc_inhibition (% inhibition of the binding of a ligand specific for each target) of 10% or above?
OUT: Criterion not met

Where these numbers come from: paper doi:10.1101/2024.08.19.608619
